Target: T1, human galectin-10-His (recombinant human galectin-10 with TEV-cleavable N-terminal His-tag) (human)
T1 construct: SEC-MALLS: dimer in solution; also called Gal10-His; humanGal10-His
T1 chain: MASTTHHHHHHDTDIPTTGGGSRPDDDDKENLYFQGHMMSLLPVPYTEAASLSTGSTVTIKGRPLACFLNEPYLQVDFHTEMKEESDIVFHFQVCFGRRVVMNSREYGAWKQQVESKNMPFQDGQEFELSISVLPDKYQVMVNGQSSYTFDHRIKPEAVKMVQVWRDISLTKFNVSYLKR
Test: BLI OctetRed96, Fab on galectin-10-His
MEASURED METRIC: pKd
Reminder that pKd means the negative base-10 logarithm of the concentration expressed in mol/L.

Past entries and their recorded results:
[[record]]
binder = "4E08 Fab (Fab, V domains shown, VH on human CH1 constant domain (with part of the hinge region), VL on human lambda constant domain; also called 4E8; Fab 4E8) VH: QVQRQESGPGLVKPSQTLSLTCTVSGGSITTSYYAWSWIRQPPGKGLEWMGVIASDGSTYYSPSLKSRTSISRDTSKNQFSLQLSSVTPEDTAVYYCALYIRGSSWSGWSAYDYWGQGTQVTVSS VL: QPVLNQPSAVSVSLGQTARITCQGGNFGYYYGSWYQQKPGQAPVLVIYKDSERPSGIPERFSGSSSGGTATLTISRAQAEDEADYYCQSADSSDNPVFGGGTHLTVL"
measured_metric = "pKd"
obs_value = 6.83

[[record]]
binder = "6F05 Fab (Fab, V domains shown, VH on human CH1 constant domain (with part of the hinge region), VL on human lambda constant domain; also called 6F5; Fab 6F5) VH: QLQLVESGGGLVQPGGSLRLSCAASGFTFSSYAMSWVRQAPGKGLEWVSAINSGGGSTSYADSVKGRFTISRDNAKNTLYLQMNSLKPEDTAVYYCATPGDRLWYYRYDYWGQGTQVTVSS VL: QAGLTQPPSVSGTLGKAVTISCAGTSSDIGYGNYVSWYQQLPGTAPKLLIYKVSRRASGVPDRFSGSKSGNTASLSISGLQSEDEADYYCASYRYRNNVVFGGGTHLTVL"
measured_metric = "pKd"
obs_value = 6.73

[[record]]
binder = "1C09 Fab (Fab, V domains shown, VH on human CH1 constant domain (with part of the hinge region), VL on human lambda constant domain; also called 1C9; Fab 1C09) VH: QVQLVESGPGLVKPSQTLSLTCTVSGGSITTNSYYWSWIRQPPGKGLEWMGAIAYSGSTYYSPSLKSRTSISRDTSKNQFTLHLSSVTPEDTAVYYCARRPNWYRALDAWGQGTLVTVSS VL: NFMLTQPSAVSVSLGQTARITCQGANLGRYYGIWYQQKPGQAPVQVIYGDSNRPSGIPERFSGSSSGGTATLTISGAQAEDEADYYCQSYESSTSPVFGGGTHLTVL"
measured_metric = "pKd"
obs_value = 7.87


// next item, pKd requested
Query: Endpoint output: pKd of 1D11 Fab (Fab, V domains shown, VH on human CH1 constant domain (with part of the hinge region), VL on human lambda constant domain; also called Fab 1D11; Fab-1D11) VH: QVQLVESGGGLVQPGGSLRLSCAASGFTFDDYAMSWVRQAPGKGLEWVSGISWNGGSTYYAESMKGRFTISRDNAKNTLYLQMNSLKSEDTAVYYCAKDRNLGYRLGYPYDYWGQGTQVTVSS VL: QSVLTQPPSVSGSPGETVTISCAGTSSDVGYGNYVSWYQQLPGMAPRLLIYEVNKRASGITDRFSGSKSGNTASLTISGLQSEDEGDYYCASYRSSNNAVFGGGTHLTVL . Value?
Result: 7.97
